Target: Peroxisome proliferator-activated receptor gamma (Homo sapiens, UniProt P37231)
Sequence (P37231 whole entry): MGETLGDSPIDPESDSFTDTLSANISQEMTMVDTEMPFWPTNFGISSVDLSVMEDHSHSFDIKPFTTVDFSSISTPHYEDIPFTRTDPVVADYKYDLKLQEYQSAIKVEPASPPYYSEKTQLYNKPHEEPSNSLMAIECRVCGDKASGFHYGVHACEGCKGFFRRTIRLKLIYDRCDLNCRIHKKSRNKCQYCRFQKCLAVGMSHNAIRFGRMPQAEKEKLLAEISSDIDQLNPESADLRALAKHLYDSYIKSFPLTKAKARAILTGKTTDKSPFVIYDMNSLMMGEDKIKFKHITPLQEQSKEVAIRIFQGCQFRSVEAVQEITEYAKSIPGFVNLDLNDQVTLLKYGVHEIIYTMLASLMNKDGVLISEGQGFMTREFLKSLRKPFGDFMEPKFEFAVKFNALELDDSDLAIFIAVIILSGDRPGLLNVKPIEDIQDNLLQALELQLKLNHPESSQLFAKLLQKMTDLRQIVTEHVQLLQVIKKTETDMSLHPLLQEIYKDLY
Test: Displacement of [3H]2AD-5075 from GST-tagged human PPARgamma receptor expressed in Escherichia coli BL21
readout: IC50 (µM)
A number alone suffices; assume µM.

[Q] State the recorded IC50 for this entry: Cc1c(Oc2ccc(Cl)cc2)c2cccnc2n1Cc1cc(O[C@@H](C)C(=O)O)ccc1Cl
[A] 0.025

[Q] State the recorded IC50 for this entry: Cc1c(Oc2ccc(Cl)cc2)c2cccnc2n1Cc1ccc(F)c(O[C@@H](C)C(=O)O)c1
[A] 0.106

[Q] State the recorded IC50 for this entry: Cc1c(C(=O)c2ccc(Cl)cc2)c2ccc(OC(F)(F)F)cc2n1Cc1cccc(O[C@@H](C)C(=O)O)c1
[A] 0.001

[Q] State the recorded IC50 for this entry: COc1ccc(C(=O)c2c(C)n(Cc3cccc(O[C@H](C)C(=O)O)c3)c3ncccc23)cc1
[A] 0.726

[Q] State the recorded IC50 for this entry: COc1ccc(C(=O)c2c(C)n(Cc3ccc(F)c(O[C@@H](C)C(=O)O)c3)c3ncccc23)cc1
[A] 0.01

[Q] State the recorded IC50 for this entry: Cc1c(Oc2ccc(Cl)cc2)c2cccnc2n1Cc1cc(O[C@@H](C)C(=O)O)ccc1F
[A] 0.054

[Q] State the recorded IC50 for this entry: COc1ccc(C(=O)c2c(C)n(Cc3cccc(O[C@@H](C)C(=O)O)c3)c3nc(C)ccc23)cc1
[A] 0.016

[Q] State the recorded IC50 for this entry: Cc1c(Oc2ccc(Cl)cc2)c2ccc(F)nc2n1Cc1ccc(Cl)c(O[C@@H](C)C(=O)O)c1
[A] 0.003

[Q] State the recorded IC50 for this entry: COc1ccc(C(=O)c2c(C)n(Cc3ccc(F)c(O[C@@H](C)C(=O)O)c3)c3nc(OC)ccc23)cc1
[A] 0.001

[Q] State the recorded IC50 for this entry: COc1ccc(C(=O)c2c(C)n(Cc3cc(O[C@@H](C)C(=O)O)ccc3F)c3ncccc23)cc1
[A] 0.005

[Q] State the recorded IC50 for this entry: COc1ccc(C(=O)c2c(C)n(Cc3cc(O[C@@H](C)C(=O)O)ccc3F)c3nc(C)ccc23)cc1
[A] 0.004

[Q] State the recorded IC50 for this entry: COc1ccc(C(=O)c2c(C)n(Cc3cc(O[C@@H](C)C(=O)O)ccc3Cl)c3nc(OC)ccc23)cc1
[A] 0.002

[Q] State the recorded IC50 for this entry: COc1ccc(C(=O)c2c(C)n(Cc3cccc(O[C@@H](C)C(=O)O)c3)c3ncccc23)cc1
[A] 0.066

[Q] State the recorded IC50 for this entry: Cc1c(Oc2ccc(Cl)cc2)c2ccc(C(F)(F)F)nc2n1Cc1ccc(Cl)c(O[C@@H](C)C(=O)O)c1
[A] 0.022

[Q] State the recorded IC50 for this entry: Cc1c(Oc2ccc(Cl)cc2)c2ccc(F)nc2n1Cc1ccc(F)c(O[C@@H](C)C(=O)O)c1
[A] 0.023

[Q] State the recorded IC50 for this entry: Cc1c(Oc2ccc(Cl)cc2)c2ccc(Cl)nc2n1Cc1ccc(Cl)c(O[C@@H](C)C(=O)O)c1
[A] 0.003

[Q] State the recorded IC50 for this entry: COc1ccc(C(=O)c2c(C)n(Cc3cc(O[C@@H](C)C(=O)O)ccc3F)c3nc(OC)ccc23)cc1
[A] 0.002

[Q] State the recorded IC50 for this entry: Cc1c(Oc2ccc(Cl)cc2)c2ccc(F)nc2n1Cc1cc(O[C@@H](C)C(=O)O)ccc1Cl
[A] 0.015
